Taken from patent US9353090B2.

# assayInfo: Human liver microsome (HLM) metabolic stability assay
# Type: in vitro ADME
# runParameters: human liver microsomes
Listing of recorded Metabolic stability (Qh %), % hepatic blood flow by entry.

Examples from the recorded data:
{"molecule": "Cc1cccc(-c2cccc(N3C[C@@H]4C[C@]4(C(=O)O)C3)n2)c1OCc1ccc2c(c1C)CCN(C1CCOCC1)CC2 [Compound 33]", "endpointResult": "<24%"}
{"molecule": "Cc1cccc(-c2cccc(N3CC4OCC3C4C(=O)O)n2)c1OCc1ccc2c(c1C)CCN(C1CCOCC1)C2 (stereo not shown) [Compound 214]", "endpointResult": "<24%"}
{"molecule": "CO[C@@H]1CN(c2cccc(-c3cc(C)ccc3OCc3ccc4c(c3C)CCN(C3CCOCC3)CC4)n2)CC[C@@H]1C(=O)O [Compound 81]", "endpointResult": "30%"}

Continue with the molecule presented below.
Q) // returns reported Metabolic stability (Qh %), % hepatic blood flow for input Cc1ccc(OCc2cc(C)c3c(c2C)CCN(C2COC2)C3)c(-c2cccc(N3C[C@@H]4C[C@]4(C(=O)O)C3)n2)c1 [Compound 40]
A) <24%

* * *

# assayInfo: physchem
# runParameters: pH 2.2, aqueous buffer, kinetic from dmso stock, Solubility (pH 2.2)
Listing of recorded solubility at 24 h by entry.
Numbers only; they are read as µg/mL.

Examples from the recorded data:
{"compound": "Cc1cc(COc2c(C)cccc2-c2csc(N3CC[C@@]4(C(=O)O)C[C@H]4C3)n2)c(C)c2c1CN(C1CCOC1)CC2 (stereo partly drawn)", "uom": "µg/mL", "endpointResult": 130}
{"compound": "Cc1ccc(OCc2ccc3c(c2C)CCN(C2CCOCC2)C3)c(-c2cccc(N3C[C@@H]4C[C@]4(C(=O)O)C3)n2)c1", "uom": "µg/mL", "endpointResult": 100}
{"compound": "Cc1ccc(OCc2cc(C)c3c(c2)CCN(C2COC2)C3)c(-c2csc(N3CC[C@@]4(C(=O)O)C[C@H]4C3)n2)c1", "uom": "µg/mL", "endpointResult": 120}

Q) // returns reported solubility at 24 h for input CO[C@H]1CN(c2nc(-c3cccc(C)c3OCc3ccc4c(c3)[C@H](C)CN(C3CCOCC3)CC4)cs2)CC[C@H]1C(=O)O
A) 141

Q) // returns reported solubility at 24 h for input CO[C@H]1CN(c2nc(-c3cccc(C)c3OCc3cc(C)c4c(c3)CCN(C3COC3)CC4)cs2)CC[C@H]1C(=O)O
A) 108

* * *

# measurementTarget: human soluble guanylate cyclase alpha 1 and beta 1 subunits (sGC) (Homo sapiens (Human), UniProt Q02108+Q02153)
# Sequence (Q02108 whole entry partner): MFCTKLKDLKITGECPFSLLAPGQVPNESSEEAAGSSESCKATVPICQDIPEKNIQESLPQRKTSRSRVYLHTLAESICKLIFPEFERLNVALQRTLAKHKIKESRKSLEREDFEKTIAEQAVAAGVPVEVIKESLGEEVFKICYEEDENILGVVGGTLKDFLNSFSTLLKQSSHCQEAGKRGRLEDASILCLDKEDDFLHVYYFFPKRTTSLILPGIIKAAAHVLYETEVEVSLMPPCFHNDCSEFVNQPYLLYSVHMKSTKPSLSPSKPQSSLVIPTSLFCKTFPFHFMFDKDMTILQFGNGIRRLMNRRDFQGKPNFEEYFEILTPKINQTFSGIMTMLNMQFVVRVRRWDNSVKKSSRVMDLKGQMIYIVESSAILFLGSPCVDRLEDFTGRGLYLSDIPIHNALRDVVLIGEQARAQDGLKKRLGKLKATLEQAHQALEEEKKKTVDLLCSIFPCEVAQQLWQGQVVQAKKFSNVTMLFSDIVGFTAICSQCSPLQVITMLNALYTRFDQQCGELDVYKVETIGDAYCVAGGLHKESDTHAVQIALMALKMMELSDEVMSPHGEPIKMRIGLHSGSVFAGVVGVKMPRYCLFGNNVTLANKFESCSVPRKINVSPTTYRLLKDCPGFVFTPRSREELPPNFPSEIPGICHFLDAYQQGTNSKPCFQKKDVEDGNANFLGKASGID
# Sequence (Q02153 whole entry): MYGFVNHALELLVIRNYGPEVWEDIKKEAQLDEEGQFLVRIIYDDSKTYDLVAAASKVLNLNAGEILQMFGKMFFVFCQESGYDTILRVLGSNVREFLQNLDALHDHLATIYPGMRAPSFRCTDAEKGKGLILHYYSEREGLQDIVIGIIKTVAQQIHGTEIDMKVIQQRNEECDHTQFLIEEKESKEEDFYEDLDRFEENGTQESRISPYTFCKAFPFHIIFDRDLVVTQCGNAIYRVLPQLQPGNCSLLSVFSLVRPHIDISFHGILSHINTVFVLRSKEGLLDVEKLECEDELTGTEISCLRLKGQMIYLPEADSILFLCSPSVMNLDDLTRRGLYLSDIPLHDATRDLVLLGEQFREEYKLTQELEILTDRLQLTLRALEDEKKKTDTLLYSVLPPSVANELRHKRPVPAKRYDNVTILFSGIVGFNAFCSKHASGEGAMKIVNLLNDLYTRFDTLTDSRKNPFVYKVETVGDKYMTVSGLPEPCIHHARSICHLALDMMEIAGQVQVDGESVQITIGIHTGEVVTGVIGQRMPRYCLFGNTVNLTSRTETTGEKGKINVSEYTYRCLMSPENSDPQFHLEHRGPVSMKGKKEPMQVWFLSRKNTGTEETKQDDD
# assayInfo: sGC cellular activator assay (cGMP, HTRF), in the presence and absence of 50% human serum
# runParameters: CHO cells stably expressing human sGC alpha 1/beta 1, preincubated with 40 microM ODQ; cGMP by HTRF; Table 2 does not state whether with or without 50% human serum
# Protocol: The sGC cellular activator assay is performed in the presence and absence of 50% human serum (HS) using Chinese hamster ovary cells that have been stably transfected to express the human soluble guanylate cyclase alpha 1 and beta 1 subunits (sGC). […] Diluted compounds are added to cells and they are incubated at room temperature for thirty min. cGMP is measured using a CisBio homogeneous time resolved fluorescence kit and the EC50 is calculated for each compound. […]
resultType: pEC50
Here pEC50 is given on a logarithmic scale as minus log10 of the concentration in mol/L.

Q) // returns reported pEC50 for input COC[C@H]1N(c2cccc(-c3cccc(C)c3OCc3ccc4c(c3)[C@H](C)CN(C3CCOCC3)CC4)n2)C[C@@H]2C[C@@]21C(=O)O [Compound 226]
A) 8.22

Q) // returns reported pEC50 for input CCOC[C@H]1N(c2cccc(-c3cccc(C)c3OCc3cc(C)c4c(c3)CCN(C3CCOCC3)C4)n2)C[C@@H]2C[C@@]21C(=O)O [Compound 315]
A) 7.74

Q) // returns reported pEC50 for input COc1cc(COc2c(Cl)cccc2-c2cccc(N3CC[C@@H](C(=O)O)[C@@H](OC)C3)n2)cc2c1CN(C1CCOCC1)CC2 [Compound 251]
A) 8.22
